# Target Of Assay: human-Arginase-1 (Homo sapiens, UniProt P05089)
# Sequence (P05089 1-322): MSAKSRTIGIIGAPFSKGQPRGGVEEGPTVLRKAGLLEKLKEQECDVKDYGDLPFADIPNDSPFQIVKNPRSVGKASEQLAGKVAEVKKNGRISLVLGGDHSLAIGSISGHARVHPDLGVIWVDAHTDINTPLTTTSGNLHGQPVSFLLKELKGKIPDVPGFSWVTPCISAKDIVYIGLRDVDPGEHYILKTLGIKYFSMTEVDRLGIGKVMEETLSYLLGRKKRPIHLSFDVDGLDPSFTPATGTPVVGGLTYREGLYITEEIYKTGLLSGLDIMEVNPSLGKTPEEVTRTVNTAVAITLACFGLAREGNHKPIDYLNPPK
# Protocol Notes: Urea production in CHOK cells stably transfected with human-Arginase-1
# Experimental Parameters: IC50 class, 5 mM arginine, 24 hours, read-out: CHOK Cell
pIC50: −log10 of the molar value.
Measured Property: pIC50

See these solved cases before continuing.
>  <Compound>
NC(CCCCB(O)O)(CCCN1CCc2ccccc2C1)C(=O)O (centres unmarked) [Example 41]

>  <Recorded Result>
4.60 to 6.00

$$$$
>  <Compound>
NC(CCCCB(O)O)(C(=O)O)C1CC2CCC(C1)N2Cc1ccc(OC(F)(F)F)cc1 (centres unmarked) [Example 64]

>  <Recorded Result>
4.00 to 4.59

$$$$
>  <Compound>
NC(CCCCB(O)O)(CCCN1CCc2c(Cl)cccc2C1)C(=O)O (centres unmarked) [Example 40]

>  <Recorded Result>
4.60 to 6.00

$$$$
>  <Compound>
NC(CCCCB(O)O)(C(=O)O)[C@H]1C[C@@H](NCc2cccc(-c3ccc(Cl)cc3)c2)C1 (some centres unmarked) [Example 9]

>  <Recorded Result>
4.00 to 4.59

$$$$
>  <Compound>
NC(CCCCB(O)O)(C(=O)O)C1CC2CCC(C1)N2 (centres unmarked) [Example 61]

>  <Recorded Result>
4.60 to 6.00

$$$$

Query :: Dear colleague, I am looking for the recorded pIC50 of the following compound: NC(CCCCB(O)O)(C(=O)O)C1CC2CCC(C1)N2Cc1ccc(Cl)cc1 (centres unmarked) [Example 45]
Result :: 4.60 to 6.00

Query :: Please report the recorded pIC50 for CNC(CCCCB(O)O)(CCN1CCC(c2ccccc2)CC1)C(=O)O (centres unmarked) [Example 36] .
Result :: 4.60 to 6.00

Query :: # pIC50 lookup, item NC(CCCCB(O)O)(C(=O)O)[C@H]1C[C@@H](NCc2ccc3c(c2)Cc2ccccc2-3)C1 (some centres unmarked) [Example 24]
Result :: 4.00 to 4.59
